Attribution: patent US20260078130A1

Attribute: EC50
# Test system: endogenous NAMPT in U2OS cells
# method-notes: Cellular NAD+ modulation assay (NAD/NADH-Glo, U2OS cells)
# Assay type: cell-based
# run-conditions: Homo sapiens, 24 hours incubation, cellular NAD+
# Method: Certain compounds described herein were also assayed for their ability to stimulate the endogenous NAMPT in a native cellular environment in a cellular NAD^+ modulation assay. […] Luminescence was recorded using a luminometer. The potency measurements for the test compounds were quantified and represented as EC50 (concentration of a compound that gives half-maximal activation) and Emax (fold change of a compound's maximal activation compared to DMSO).

Would you please look over these solved cases?
>>> value_reported("Cc1ccc(=O)n(C)c1CC1c2ccccc2C(=O)N1CC1CC2(CNC(=O)O2)C1 (stereo not shown)")
"500 to 5000 nM"
>>> value_reported("Cn1ncc(Cl)c1CC1c2ccccc2C2(CC2)N1CC1CC2(CNC(=O)O2)C1 (stereo not shown)")
"500 to 5000 nM"

Input: Quickly give me recorded EC50 for Cn1ncc(Cl)c1CC1c2cc(F)ccc2S(=O)(=O)N1CC1CC2(CNC(=O)O2)C1 (stereo not shown)
Output: < 500 nM

Input: Quickly give me recorded EC50 for Cn1nc(F)c(Cl)c1CC1c2ccccc2C(=O)N1CC1CC2(CNC(=O)O2)C1 (stereo not shown)
Output: < 500 nM

Input: Quickly give me recorded EC50 for Cn1ncc(Cl)c1CC1c2ccccc2C(=O)N1C[C@H]1C[C@@]2(CNC(=O)O2)C1 (stereo partly shown)
Output: < 500 nM

Input: Quickly give me recorded EC50 for N#CCn1cc(Cl)c(CC2c3ccccc3C(=O)N2Cc2ccc3[nH]nnc3c2)n1 (stereo not shown)
Output: 500 to 5000 nM

Input: Quickly give me recorded EC50 for COc1ccc(CN2C(=O)c3ccccc3C2Cc2c(Cl)cnn2C)nc1F (stereo not shown)
Output: 500 to 5000 nM
